The values you see were collected from ChEMBL document CHEMBL1138614.

# Tested on: Enterococcus
# EXPERIMENT NOTES: Antibacterial activity against vancomycin-resistant Enterococcus 5 after 18 to 20 hrs by agar dilution method
# Format: functional
Listed compounds paired with reported MIC
PROPERTY MEASURED: MIC (µg/mL)

CCCO/N=C1\CN(c2ccc(N3C[C@H](CNC(C)=O)OC3=O)cc2F)CC12CC2 ... 12.5
CC(=O)NC[C@H]1CN(c2ccc(N3C/C(=N\N)C4(CC4)C3)c(F)c2)C(=O)O1 ... 12.5
CCO/N=C1\CN(c2ccc(N3C[C@H](CNC(C)=O)OC3=O)cc2F)CC12CC2 ... 6.25
CO/N=C1\CN(c2ccc(N3C[C@H](CNC(C)=O)OC3=O)cc2F)CC12CC2 ... 6.25
CC(=O)NC[C@H]1CN(c2ccc(N3CC(F)C4(CC4)C3)c(F)c2)C(=O)O1 (stereo not given in full) ... 0.78
CC(=O)NC[C@H]1CN(c2ccc(N3CC(N)C4(CC4)C3)c(F)c2)C(=O)O1 (stereo not given in full) ... 6.25
CC(=O)NC[C@H]1CN(c2ccc(N3CCOCC3)c(F)c2)C(=O)O1 ... 1.56
CC(=O)NC[C@H]1CN(c2ccc(N3C/C(=N\O)C4(CC4)C3)c(F)c2)C(=O)O1 ... 6.25
CC(=O)NC[C@H]1CN(c2ccc(N3CC(=O)C4(CC4)C3)c(F)c2)C(=O)O1 ... 3.12
CC(=O)NC[C@H]1CN(c2ccc(N3CC(O)C4(CC4)C3)c(F)c2)C(=O)O1 (stereo not given in full) ... 6.25

###

# Tested on: Enterococcus faecium
# EXPERIMENT NOTES: Antibacterial activity against vancomycin-resistant Enterococcus faecium after 18 to 20 hrs by agar dilution method
# Assay type: functional
PROPERTY MEASURED: MIC (µg/mL)

CC(=O)NC[C@H]1CN(c2ccc(N3CC(F)C4(CC4)C3)c(F)c2)C(=O)O1 (stereo not given in full) ... 1.56
CC(=O)NC[C@H]1CN(c2ccc(N3CC(N)C4(CC4)C3)c(F)c2)C(=O)O1 (stereo not given in full) ... 6.25
CO/N=C1\CN(c2ccc(N3C[C@H](CNC(C)=O)OC3=O)cc2F)CC12CC2 ... 6.25
CCO/N=C1\CN(c2ccc(N3C[C@H](CNC(C)=O)OC3=O)cc2F)CC12CC2 ... 12.5
CCCO/N=C1\CN(c2ccc(N3C[C@H](CNC(C)=O)OC3=O)cc2F)CC12CC2 ... 12.5

###

# Tested on: Enterococcus
# EXPERIMENT NOTES: Antibacterial activity against vancomycin-resistant Enterococcus 4 after 18 to 20 hrs by agar dilution method
# Format: functional
MIC strictly under 6 µg/mL means 1 (yes); at 6 µg/mL or over means 0 (no).

CC(=O)NC[C@H]1CN(c2ccc(N3C/C(=N\O)C4(CC4)C3)c(F)c2)C(=O)O1 ... 0 (no)
CC(=O)NC[C@H]1CN(c2ccc(N3CCOCC3)c(F)c2)C(=O)O1 ... 1 (yes)
CC(=O)NC[C@H]1CN(c2ccc(N3C/C(=N\N)C4(CC4)C3)c(F)c2)C(=O)O1 ... 0 (no)
CO/N=C1\CN(c2ccc(N3C[C@H](CNC(C)=O)OC3=O)cc2F)CC12CC2 ... 0 (no)
CC(=O)NC[C@H]1CN(c2ccc(N3CC(=O)C4(CC4)C3)c(F)c2)C(=O)O1 ... 1 (yes)
CCO/N=C1\CN(c2ccc(N3C[C@H](CNC(C)=O)OC3=O)cc2F)CC12CC2 ... 0 (no)
CCCO/N=C1\CN(c2ccc(N3C[C@H](CNC(C)=O)OC3=O)cc2F)CC12CC2 ... 0 (no)
CC(=O)NC[C@H]1CN(c2ccc(N3CC(N)C4(CC4)C3)c(F)c2)C(=O)O1 (stereo not given in full) ... 0 (no)
CC(=O)NC[C@H]1CN(c2ccc(N3CC(F)C4(CC4)C3)c(F)c2)C(=O)O1 (stereo not given in full) ... 1 (yes)
CC(=O)NC[C@H]1CN(c2ccc(N3CC(O)C4(CC4)C3)c(F)c2)C(=O)O1 (stereo not given in full) ... 0 (no)

###

# Tested on: Enterococcus
# EXPERIMENT NOTES: Antibacterial activity against vancomycin-resistant Enterococcus 1 after 18 to 20 hrs by agar dilution method
# Format: functional
PROPERTY MEASURED: MIC (µg/mL)

CO/N=C1\CN(c2ccc(N3C[C@H](CNC(C)=O)OC3=O)cc2F)CC12CC2 ... 6.25
CC(=O)NC[C@H]1CN(c2ccc(N3C/C(=N\O)C4(CC4)C3)c(F)c2)C(=O)O1 ... 12.5
CC(=O)NC[C@H]1CN(c2ccc(N3CC(=O)C4(CC4)C3)c(F)c2)C(=O)O1 ... 3.12
CCO/N=C1\CN(c2ccc(N3C[C@H](CNC(C)=O)OC3=O)cc2F)CC12CC2 ... 12.5
CCCO/N=C1\CN(c2ccc(N3C[C@H](CNC(C)=O)OC3=O)cc2F)CC12CC2 ... 12.5
CC(=O)NC[C@H]1CN(c2ccc(N3C/C(=N\N)C4(CC4)C3)c(F)c2)C(=O)O1 ... 12.5
CC(=O)NC[C@H]1CN(c2ccc(N3CC(F)C4(CC4)C3)c(F)c2)C(=O)O1 (stereo not given in full) ... 1.56
CC(=O)NC[C@H]1CN(c2ccc(N3CCOCC3)c(F)c2)C(=O)O1 ... 1.56
CC(=O)NC[C@H]1CN(c2ccc(N3CC(O)C4(CC4)C3)c(F)c2)C(=O)O1 (stereo not given in full) ... 3.12
CC(=O)NC[C@H]1CN(c2ccc(N3CC(N)C4(CC4)C3)c(F)c2)C(=O)O1 (stereo not given in full) ... 12.5

###

# Tested on: Staphylococcus aureus
# EXPERIMENT NOTES: Antibacterial activity against Staphylococcus aureus C463 after 18 to 20 hrs by agar dilution method
# Type: functional
// MIC lookup, one value per entry
PROPERTY MEASURED: MIC (µg/mL)

CC(=O)NC[C@H]1CN(c2ccc(N3CC(N)C4(CC4)C3)c(F)c2)C(=O)O1 (stereo not given in full) ... 6.25
CCCO/N=C1\CN(c2ccc(N3C[C@H](CNC(C)=O)OC3=O)cc2F)CC12CC2 ... 25
CC(=O)NC[C@H]1CN(c2ccc(N3C/C(=N\N)C4(CC4)C3)c(F)c2)C(=O)O1 ... 25
CC(=O)NC[C@H]1CN(c2ccc(N3CC(O)C4(CC4)C3)c(F)c2)C(=O)O1 (stereo not given in full) ... 12.5
CC(=O)NC[C@H]1CN(c2ccc(N3C/C(=N\O)C4(CC4)C3)c(F)c2)C(=O)O1 ... 12.5

###

# Test system: Enterococcus
# EXPERIMENT NOTES: Antibacterial activity against vancomycin-resistant Enterococcus 2 after 18 to 20 hrs by agar dilution method
# Assay type: functional
PROPERTY MEASURED: log10 of MIC (log10 of the value in µg/mL)

CCO/N=C1\CN(c2ccc(N3C[C@H](CNC(C)=O)OC3=O)cc2F)CC12CC2 ... 0.80
CC(=O)NC[C@H]1CN(c2ccc(N3C/C(=N\N)C4(CC4)C3)c(F)c2)C(=O)O1 ... 1.40
CCCO/N=C1\CN(c2ccc(N3C[C@H](CNC(C)=O)OC3=O)cc2F)CC12CC2 ... 1.10
CC(=O)NC[C@H]1CN(c2ccc(N3CC(O)C4(CC4)C3)c(F)c2)C(=O)O1 (stereo not given in full) ... 0.80
CO/N=C1\CN(c2ccc(N3C[C@H](CNC(C)=O)OC3=O)cc2F)CC12CC2 ... 0.49
CC(=O)NC[C@H]1CN(c2ccc(N3CC(N)C4(CC4)C3)c(F)c2)C(=O)O1 (stereo not given in full) ... 0.80
CC(=O)NC[C@H]1CN(c2ccc(N3CC(=O)C4(CC4)C3)c(F)c2)C(=O)O1 ... 0.19
CC(=O)NC[C@H]1CN(c2ccc(N3C/C(=N\O)C4(CC4)C3)c(F)c2)C(=O)O1 ... 0.80
CC(=O)NC[C@H]1CN(c2ccc(N3CCOCC3)c(F)c2)C(=O)O1 ... 0.19
CC(=O)NC[C@H]1CN(c2ccc(N3CC(F)C4(CC4)C3)c(F)c2)C(=O)O1 (stereo not given in full) ... 0.19

###

# Test system: Haemophilus influenzae
# EXPERIMENT NOTES: Antibacterial activity against Haemophilus influenzae after 18 to 20 hrs by agar dilution method
# Assay type: functional
PROPERTY MEASURED: MIC (mg/L)

CC(=O)NC[C@H]1CN(c2ccc(N3C/C(=N\N)C4(CC4)C3)c(F)c2)C(=O)O1 ... 25
CCCO/N=C1\CN(c2ccc(N3C[C@H](CNC(C)=O)OC3=O)cc2F)CC12CC2 ... 25
CO/N=C1\CN(c2ccc(N3C[C@H](CNC(C)=O)OC3=O)cc2F)CC12CC2 ... 6.25
CC(=O)NC[C@H]1CN(c2ccc(N3C/C(=N\O)C4(CC4)C3)c(F)c2)C(=O)O1 ... 12.5
CC(=O)NC[C@H]1CN(c2ccc(N3CC(O)C4(CC4)C3)c(F)c2)C(=O)O1 (stereo not given in full) ... 6.25
CC(=O)NC[C@H]1CN(c2ccc(N3CC(F)C4(CC4)C3)c(F)c2)C(=O)O1 (stereo not given in full) ... 0.39
CC(=O)NC[C@H]1CN(c2ccc(N3CCOCC3)c(F)c2)C(=O)O1 ... 1.56
CC(=O)NC[C@H]1CN(c2ccc(N3CC(=O)C4(CC4)C3)c(F)c2)C(=O)O1 ... 1.56
CC(=O)NC[C@H]1CN(c2ccc(N3CC(N)C4(CC4)C3)c(F)c2)C(=O)O1 (stereo not given in full) ... 6.25
CCO/N=C1\CN(c2ccc(N3C[C@H](CNC(C)=O)OC3=O)cc2F)CC12CC2 ... 12.5
